Biological target: Human JAK1 (Homo sapiens (Human), UniProt P23458)
Sequence (P23458 whole entry): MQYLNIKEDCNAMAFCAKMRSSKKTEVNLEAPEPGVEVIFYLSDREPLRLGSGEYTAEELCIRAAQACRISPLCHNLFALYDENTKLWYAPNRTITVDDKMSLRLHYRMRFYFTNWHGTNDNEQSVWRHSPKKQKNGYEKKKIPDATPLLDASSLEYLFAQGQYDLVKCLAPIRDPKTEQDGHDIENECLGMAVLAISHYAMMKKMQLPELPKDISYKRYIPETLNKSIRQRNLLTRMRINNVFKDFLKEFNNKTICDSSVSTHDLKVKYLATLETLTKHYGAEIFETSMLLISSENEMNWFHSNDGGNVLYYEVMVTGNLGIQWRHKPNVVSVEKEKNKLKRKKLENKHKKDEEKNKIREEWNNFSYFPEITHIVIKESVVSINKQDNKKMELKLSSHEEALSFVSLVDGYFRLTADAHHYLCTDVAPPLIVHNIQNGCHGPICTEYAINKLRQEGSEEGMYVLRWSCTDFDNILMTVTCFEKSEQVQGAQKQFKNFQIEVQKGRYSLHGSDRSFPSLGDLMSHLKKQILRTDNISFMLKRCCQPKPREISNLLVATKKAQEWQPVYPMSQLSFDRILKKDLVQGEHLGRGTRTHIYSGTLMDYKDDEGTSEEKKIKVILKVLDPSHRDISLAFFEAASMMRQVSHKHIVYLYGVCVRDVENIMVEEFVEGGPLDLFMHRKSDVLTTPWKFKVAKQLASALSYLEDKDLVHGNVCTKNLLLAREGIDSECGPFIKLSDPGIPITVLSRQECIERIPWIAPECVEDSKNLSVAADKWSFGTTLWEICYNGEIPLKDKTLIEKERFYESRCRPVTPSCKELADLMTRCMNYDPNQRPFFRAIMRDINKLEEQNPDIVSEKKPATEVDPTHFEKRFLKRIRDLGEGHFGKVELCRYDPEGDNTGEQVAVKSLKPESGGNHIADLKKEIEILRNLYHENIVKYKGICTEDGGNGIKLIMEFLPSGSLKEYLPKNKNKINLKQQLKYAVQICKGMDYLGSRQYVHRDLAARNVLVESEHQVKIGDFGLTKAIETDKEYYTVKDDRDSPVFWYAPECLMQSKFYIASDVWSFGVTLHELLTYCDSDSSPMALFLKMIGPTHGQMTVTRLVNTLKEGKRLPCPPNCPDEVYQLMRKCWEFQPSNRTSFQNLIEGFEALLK
Assay: In vitro kinase inhibition test, JAK1 (33P-ATP filter scintillation)
Format: biochemical
Conditions: compound at 1 uM; read-out: JAK1 kinase-phosphorylation inhibitory level (% inhibition)
property-name: inhibition at 1 µM (%)

# compound-string, tgt, endpoint-unit, inhibition at 1 µM
records = [
    ("CN(c1ncnc2[nH]ccc12)[C@H]1CN(S(=O)(=O)c2cccc(F)c2)CC12CC2", "Human JAK1 (Homo sapiens (Human), UniProt P23458)", "%", 100),
    ("CN(c1ncnc2[nH]ccc12)[C@H]1CN(C(=O)c2cccc(C#N)c2)CC12CC2", "Human JAK1 (Homo sapiens (Human), UniProt P23458)", "%", 76),
    ("CN(c1ncnc2[nH]ccc12)[C@H]1CN(C(=O)Nc2ccc(F)cc2)CC12CC2", "Human JAK1 (Homo sapiens (Human), UniProt P23458)", "%", 94),
    ("CN(c1ncnc2[nH]ccc12)[C@H]1CN(S(=O)(=O)N2CCOCC2)CC12CC2", "Human JAK1 (Homo sapiens (Human), UniProt P23458)", "%", 97),
    ("CCCCNC(=O)N1C[C@H](N(C)c2ncnc3[nH]ccc23)C2(CC2)C1", "Human JAK1 (Homo sapiens (Human), UniProt P23458)", "%", 94),
    ("CN(c1ncnc2[nH]ccc12)[C@H]1CN(C(=O)Nc2cccc(Cl)c2Cl)CC12CC2", "Human JAK1 (Homo sapiens (Human), UniProt P23458)", "%", 91),
    ("CC(C)CC(=O)N1C[C@H](N(C)c2ncnc3[nH]ccc23)C2(CC2)C1", "Human JAK1 (Homo sapiens (Human), UniProt P23458)", "%", 90),
    ("CN(c1ncnc2[nH]ccc12)[C@H]1CN(C(=O)c2ccco2)CC12CC2", "Human JAK1 (Homo sapiens (Human), UniProt P23458)", "%", 93),
    ("CN(c1ncnc2[nH]ccc12)[C@H]1CN(C(=S)CC#N)CC12CC2", "Human JAK1 (Homo sapiens (Human), UniProt P23458)", "%", 98),
    ("CN(c1ncnc2[nH]ccc12)[C@H]1CN(C(=O)Nc2ccccc2-c2ccccc2)CC12CC2", "Human JAK1 (Homo sapiens (Human), UniProt P23458)", "%", 80),
]
